System: M14 melanoma
Assay: NCI tumour cell line growth inhibition, 48 h
MEASURED PROPERTY: TGI

Task item: Item under review: "O=C(NCCc1nccs1)c1cnc2c(S)cccc2c1" . Reported TGI?
Reply: 38.6 µM

Task item: Item under review: O=S(=O)(c1ccccc1)C1(C2(S(=O)(=O)c3ccccc3)CCN=N2)CCN=N1 (stereo unspecified) . Reported TGI?
Reply: > 100 µM

Task item: Item under review: COc1ccc2c(c1)C1Oc3ccccc3CC1CO2 (stereo unspecified) . Reported TGI?
Reply: > 100 µM

Task item: Item under review: C#CCNC(CCCN=C(N)N)C(=O)O (stereo unspecified) . Reported TGI?
Reply: > 100 µM

Task item: Item under review: "O=C(O)CC(CC(=O)O)n1cccc1" . Reported TGI?
Reply: > 100 µM

Task item: Item under review: "Cc1ccc(S(=O)(=O)NC(=O)Nc2ncn[nH]2)cc1" . Reported TGI?
Reply: > 100 µM

Task item: Item under review: O=C(O)C(C1NCCS1)N1C(=O)c2ccccc2C1=O (stereo unspecified) . Reported TGI?
Reply: > 100 µM

Task item: Item under review: "CN(COC(=O)C(C)(C)C)c1nc(N(C)COC(=O)C(C)(C)C)nc(N(C)COC(=O)C(C)(C)C)n1" . Reported TGI?
Reply: 47.6 µM

Task item: Item under review: "CCSc1c2cc(OC)ccc2nc2ccc(OC)cc12" . Reported TGI?
Reply: 33.3 µM

Task item: Item under review: "O=S(=O)([O-])c1ccc(C=Nc2ccccc2)c([O-])c1.O=S(=O)([O-])c1ccc(C=Nc2ccccc2)c([O-])c1.[Co+2]" . Reported TGI?
Reply: > 100 µM

Task item: Item under review: CCc1cn(C2CC(CO)C(CO)S2)c(=O)[nH]c1=O (stereo unspecified) . Reported TGI?
Reply: > 100 µM
